Just for reference, patent US20060156431A1 is where these values come from.

# tested.system: GDP-Man 3″,5″-epimerase of A. thaliana (Arabidopsis thaliana, UniProt Q93VR3)
# Construct: The hydroxylapatite fraction of native epimerase (11) was used; endogenous in cells; host or cells: Arabidopsis thaliana ecotype Columbia cell suspensions; enzyme purified, hydroxylapatite fraction
# Sequence (Q93VR3 1-377): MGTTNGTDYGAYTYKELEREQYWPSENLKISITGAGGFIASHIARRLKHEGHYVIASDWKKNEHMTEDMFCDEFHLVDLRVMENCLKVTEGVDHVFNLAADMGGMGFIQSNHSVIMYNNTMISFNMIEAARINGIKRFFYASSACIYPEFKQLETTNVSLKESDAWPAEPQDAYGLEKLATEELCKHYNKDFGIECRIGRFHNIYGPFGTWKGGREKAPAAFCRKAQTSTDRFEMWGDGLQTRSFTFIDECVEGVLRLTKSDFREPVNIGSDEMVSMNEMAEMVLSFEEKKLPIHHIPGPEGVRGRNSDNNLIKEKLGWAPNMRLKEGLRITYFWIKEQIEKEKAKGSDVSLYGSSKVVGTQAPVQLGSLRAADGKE
# protocol.description: GDP-Man 3″,5″-epimerase assay (HPLC)
# Format: biochemical
# measurement.parameters: purified epimerase, exogenously added dinucleotide
Consider the following molecules and their measured epimerase activity readings.

// below: answered molecules
NC(=O)c1ccc[n+]([C@@H]2O[C@H](COP(=O)([O-])OP(=O)(O)OC[C@H]3O[C@@H](n4cnc5c(N)ncnc54)[C@H](O)[C@@H]3O)[C@@H](O)[C@H]2O)c1 145 % of control
NC(=O)C1=CN([C@@H]2O[C@H](COP(=O)(O)OP(=O)(O)OC[C@H]3O[C@@H](n4cnc5c(N)ncnc54)[C@H](O)[C@@H]3O)[C@@H](O)[C@H]2O)C=CC1 78 % of control
NC(=O)c1ccc[n+]([C@@H]2O[C@H](COP(=O)([O-])OP(=O)(O)OC[C@H]3O[C@@H](n4cnc5c(N)ncnc54)[C@H](OP(=O)(O)O)[C@@H]3O)[C@@H](O)[C@H]2O)c1 110 % of control

Switching to the query record.
Entry under test: `NC(=O)C1=CN([C@@H]2O[C@H](COP(=O)(O)OP(=O)(O)OC[C@H]3O[C@@H](n4cnc5c(N)ncnc54)[C@H](OP(=O)(O)O)[C@@H]3O)[C@@H](O)[C@H]2O)C=CC1` . Its epimerase activity was 88 % of control
